Entry source: PubChem BioAssay

- Tested on: transactivating tegument protein VP16 (Human herpesvirus 1), Gal4-VP16 luciferase reporter
- protocol-details: VP16 transactivation inhibitors, counter-screen for SRC3 inhibitor project, cell-based, luminescence, high throughput (AID 588794)
- recorded-conditions: mammalian cells, VP16-driven luciferase reporter luminescence; at 3.6 µM; stronger effect = higher value
measured-metric: inhibition (%)

molecule	observed
CC(=O)NC(C)c1cc(Cl)c2cccnc2c1O (stereo not drawn)	2.75
Cc1ccc2[nH]c3c(c2c1)CCCC3NC(=O)CCl (stereo not drawn)	84.2
CC1=C(C(=O)OCc2ccc3c(c2)OCO3)C(c2ccc(O)c([N+](=O)[O-])c2)NC(=O)N1 (stereo not drawn)	37.2
CN(Cc1c(C(=O)N/N=C/c2cccc(F)c2)nnn1-c1nonc1N)C1CCCCC1	3.59
NC1=C(Br)C(=O)c2ncccc2C1=O	60.8
COC1CC(C)C(OC)c2cc(O)cc(c2O)NC(=O)C(C)=CC=CC(C)C(OC(N)=O)C(C)=CC(C)C1OC (stereo not drawn)	80.2
O=C(C1CCC(CNS(=O)(=O)c2cccs2)CC1)N1CCN(c2ccc(Cl)cc2)CC1 (stereo not drawn)	30.5
COc1cccc(NC(=O)CSc2nnc(-c3cc(C)n(-c4ccccc4)c3C)o2)c1	23.3
CCC(=O)c1ccc(Oc2nc3c(c(=O)n(C)c(=O)n3C)n2CC)cc1	19.6
CN(c1ncnc(N)c1[N+](=O)[O-])C1CCS(=O)(=O)C1 (stereo not drawn)	35.7
c1cncc(CNc2ncnc3ccc(-c4ccoc4)cc23)c1	42.8
O=C(CSCC(=O)Nc1ccccc1)N/N=C/c1c(O)ccc2ccccc12	30.7
CN(C)/C=C/C(=O)c1ccc2noc(-c3ccccc3)c2c1	28.1
Cc1ccc(/C=N/NC(=O)C2=NNC(c3ccccc3)(c3ccccc3)C2)c(O)c1	57.5
O=C(Nc1ccc(N2CCN(C(=O)c3ccccc3F)CC2)cc1)c1cncc(Br)c1	37.8
CCOC(=O)C(=Cc1ccccc1)C(=O)c1ccccc1	33.6
COc1ccc(COC(=O)C2=C(C)NC(=O)NC2c2ccc(OC)cc2)cc1 (stereo not drawn)	20.8
CN1CCN(S(=O)(=O)c2cccc(C(=O)N(C)CC(=O)Nc3ccc(Cl)c(Cl)c3)c2)CC1	17.9
COc1cc(/C=C(/C(=O)c2cccs2)c2nc3ccccc3[nH]2)cc(OC)c1O	12.1
Cc1ccc(C)c(N2CCN(C(=O)CCCCCn3c(=S)[nH]c4ccc(N5CCOCC5)cc4c3=O)CC2)c1	73.1
CCCCC(=O)NC(=S)Nc1cccc(Cl)c1N1CCCCC1	-6.23
CCc1nc(N)nc(N)c1-c1ccc(N(C)Cc2ccccc2)c([N+](=O)[O-])c1	54.7
O=C(C[n+]1ccccc1)NNc1ccccc1	47.4
CC(=O)Nc1ccc(S(=O)(=O)Nc2ccc(N3CCCCC3)cc2)cc1	0.96
Nc1ccc(-c2nc3c(Cl)cc(N)cc3[nH]2)cc1	-18.4
CN(C)c1ccc(/C=C/c2ccc3ccccc3[n+]2C)cc1	74.5
Cc1nnsc1-c1onc(C)c1C(=O)Nc1cc(Cl)cc(Cl)c1	13.8
COc1ccc(CNc2nn3c(-c4cccc(C(=O)N(C)C)c4)cnc3s2)cc1	30.7
CC1CCN(C2=NC(=O)/C(=C/c3ccccc3F)S2)CC1	-5.24
CC(C)(C)c1ccc(-c2noc(CCC(=O)Nc3cccnc3)n2)cc1	25.7
COc1ccccc1-c1cc2nc(-c3ccccc3)cc(N3CCN(C(=O)c4ccco4)CC3)n2n1	48.6
Cc1ccc(Sc2c(C=O)c3ccccc3n2C)cc1	42.4
Cc1cccc(NC(=S)N(CCCN2CCOCC2)Cc2cn(C)c3ccccc23)c1	-2.77
CCN(CC)CCOc1c(Br)ccc2c1sc1nc3n(c(=O)c12)CCC3	2.47
COC1C(=O)CCC2(CO2)C1(O)C1(C)OC1CC=C(C)C (stereo not drawn)	40.8
CN(C)CCCOc1ccc2c(c1)Sc1ccccc1CC2=O	-4.19
C(=NNc1ccc2ccccc2n1)c1ccccn1	-12
CCCC(=O)NC(c1ccc(C(C)C)cc1)c1ccc2cccnc2c1O (stereo not drawn)	73.2
CN(Cc1ccccc1)C1=CC(=[N+]2CCCC2)CC(C)(C)C1	67.9
O=C(N/N=C\c1ccc([N+](=O)[O-])o1)C1COc2ccccc2O1 (stereo not drawn)	9.31
CC(=O)c1ccc(-n2c(C)c(C(C)=O)c3cc(O)ccc32)cc1	45.6
C=CC[C@@H](CC(=O)NCCO)C(=O)NC[C@H](OC(=O)[C@@H](CC=C)Cc1ccc(F)cc1)c1ccccc1	2.08
CN(C(=O)COc1ccccc1C(=O)NCCOc1ccccc1)c1ccccc1	32.4

###

- target-entity: Nuclear receptor coactivator 3 (Homo sapiens)
- protocol-details: SRC3 coactivator transcriptional activity inhibitors, confirmation, cell-based, luminescence, quadruplicate (AID 588792);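 also: 0% = DMSO treated cells and 100% = gossypol at 36 µM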
- recorded-conditions: HEK293 GAL4-SRC3 luciferase reporter, at 3.6 µM, stronger effect = higher value
measured-metric: inhibition (%)

compound	observed
O=C1/C(=C/c2cccnc2)SC(=S)N1C1CCS(=O)(=O)C1 (stereo unspecified)	-0.1
Cc1nc(NCc2ccccn2)c2ccccc2n1	-6.68
O=C(Nc1ccccc1)Nc1cc(OCC(F)(F)F)cc(OCC(F)(F)F)c1	21.7
O=C(Nc1scc(-c2ccc(Br)cc2)c1C(=O)O)c1ccccc1F	10.7
CN(Cc1cnc2nc(N)nc(N)c2n1)c1ccc(C(=O)N[C@@H](CCC(=O)O)C(=O)O)cc1	66.7
CC(=O)NC(c1ccc(C)cc1)c1cc(Cl)c2cccnc2c1O (stereo unspecified)	26.4

###

- target-entity: Nuclear receptor subfamily 5 group A member 2 (Homo sapiens)
- protocol-details: LRH-1 (NR5A2) inverse agonists, retest, confirmation, cell-based, luminescence (AID 651613);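 also: HEK293T cells co-transfected with LRH-1 and StAR promoter luciferase reporter; 0% = vehicle wells and 100% = parental cells lacking receptor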
- recorded-conditions: cell-based LRH-1 luciferase reporter, inverse agonism; at 3.6 µM
The source made the active and inactive calls. Cut-off read from the data, not from the text of the source: active = inhibition above about 42%; inactive = the rest.
Outcomes: active, inactive

compound	target-entity	assigned-category
Cc1cc(C)nc(NC(=O)c2ccc(COc3ccccc3Cl)cc2)c1	Nuclear receptor subfamily 5 group A member 2 (Homo sapiens)	active
COc1ccc(-n2c(-c3ccc(Cl)cc3)c[n+]3c2CCc2ccccc2-3)cc1	Nuclear receptor subfamily 5 group A member 2 (Homo sapiens)	active
C/C(=N/N1CCN(Cc2cccc3ccccc23)CC1)c1cccnc1	Nuclear receptor subfamily 5 group A member 2 (Homo sapiens)	inactive
O=C(NCCN1CCOCC1)c1ccc2c(c1)N(Cc1ccccc1F)C(=O)CS2	Nuclear receptor subfamily 5 group A member 2 (Homo sapiens)	active
O=C(Nc1nc(-c2cccs2)cs1)c1ccc([N+](=O)[O-])o1	Nuclear receptor subfamily 5 group A member 2 (Homo sapiens)	active
CCOc1ccc(Nc2cc(C)nc(-n3nc(C)cc3C)n2)cc1	Nuclear receptor subfamily 5 group A member 2 (Homo sapiens)	active
CCCCOCCCNc1ncnc2c1[nH]c1ccccc12	Nuclear receptor subfamily 5 group A member 2 (Homo sapiens)	active
CCc1nc(N)nc(N)c1-c1ccc(N(C)Cc2ccccc2)c([N+](=O)[O-])c1	Nuclear receptor subfamily 5 group A member 2 (Homo sapiens)	active
CC(=O)c1ccc(-c2c(C)cc3oc(=O)cc(-c4ccccc4)c3c2C)cc1	Nuclear receptor subfamily 5 group A member 2 (Homo sapiens)	active
CN(C)c1ccc(C=c2c3ccccc3n3c2c2c([n+]3C)CCCC2)cc1	Nuclear receptor subfamily 5 group A member 2 (Homo sapiens)	active
O=C(COC(=O)c1ccccc1O)Nc1ccc(N2CCOCC2)cc1	Nuclear receptor subfamily 5 group A member 2 (Homo sapiens)	active
Cn1nccc1C(=O)NC1CCCc2c1cnn2-c1ccc(F)cc1F (centres undefined)	Nuclear receptor subfamily 5 group A member 2 (Homo sapiens)	active
COC(=O)c1ccc(NC(=O)CN2CCN(S(=O)(=O)c3cc(Cl)ccc3OC)CC2)cc1	Nuclear receptor subfamily 5 group A member 2 (Homo sapiens)	active
COCC1CCCN(C(=O)c2cc(COc3ccc4ncccc4c3)on2)C1 (centres undefined)	Nuclear receptor subfamily 5 group A member 2 (Homo sapiens)	active
O=C(CSc1ncccc1-c1nc2ccccc2[nH]1)Nc1ccc2c(c1)OCCO2	Nuclear receptor subfamily 5 group A member 2 (Homo sapiens)	inactive
O=C(NC(NC(=S)N1CCOCC1)C(Cl)(Cl)Cl)c1ccc(Cl)cc1 (centres undefined)	Nuclear receptor subfamily 5 group A member 2 (Homo sapiens)	active
CN(Cc1cnc2nc(N)nc(N)c2n1)c1ccc(C(=O)NC(CCC(=O)O)C(=O)O)cc1 (centres undefined)	Nuclear receptor subfamily 5 group A member 2 (Homo sapiens)	active
Cn1c(=O)n(C)c2cc(NC(=O)CSc3nnc(-c4ccccc4O)n3-c3ccccc3)ccc21	Nuclear receptor subfamily 5 group A member 2 (Homo sapiens)	active
COC1C(=O)CCC2(CO2)C1(O)C1(C)OC1CC=C(C)C (centres undefined)	Nuclear receptor subfamily 5 group A member 2 (Homo sapiens)	active
COc1ccc(C2=CC(=O)OC3(CCCCC3)O2)cc1	Nuclear receptor subfamily 5 group A member 2 (Homo sapiens)	active
CC(=O)c1c(C)[nH]c(C(=O)OCC(=O)Nc2ccc(Cl)cc2[N+](=O)[O-])c1C	Nuclear receptor subfamily 5 group A member 2 (Homo sapiens)	active
N#CC(=C1C=CC(=NO)C(Cl)=C1)c1ccccc1	Nuclear receptor subfamily 5 group A member 2 (Homo sapiens)	active
C=C1C(=O)C23CCC4C(C)(C(=O)OC)CCCC4(C)C2CCC1(O)C3 (centres undefined)	Nuclear receptor subfamily 5 group A member 2 (Homo sapiens)	active
N=c1c2c(n(Cc3ccccc3)c3c1CCC3)CCC2	Nuclear receptor subfamily 5 group A member 2 (Homo sapiens)	active
Oc1ccc(CCNc2ncnc3ccc(Cl)cc23)cc1	Nuclear receptor subfamily 5 group A member 2 (Homo sapiens)	active
Cc1ccc(-c2cc(NC=O)c3ncc(-c4cnn(C)c4)n3c2)cc1	Nuclear receptor subfamily 5 group A member 2 (Homo sapiens)	active
COc1ccc(CCn2c(C)cc(C(=O)COC(=O)c3ccc(O)cc3O)c2C)cc1	Nuclear receptor subfamily 5 group A member 2 (Homo sapiens)	active
Cc1cccc(-n2ncc3c(N(C)C4CCCCC4)ncnc32)c1	Nuclear receptor subfamily 5 group A member 2 (Homo sapiens)	inactive
Cc1cc(C(=O)NC2CCCc3c2cnn3-c2cccc(C)c2C)n(C)n1 (centres undefined)	Nuclear receptor subfamily 5 group A member 2 (Homo sapiens)	active
COc1ccc(CCNC(=O)c2ccccc2NC(=O)CN2CCN(c3ccccc3O)CC2)cc1	Nuclear receptor subfamily 5 group A member 2 (Homo sapiens)	active
CCC(C)n1ncn(-c2ccc(N3CCN(c4ccc(O)cc4)CC3)cc2)c1=O (centres undefined)	Nuclear receptor subfamily 5 group A member 2 (Homo sapiens)	active
N=c1sccn1CC(=O)Nc1ccc(S(N)(=O)=O)cc1	Nuclear receptor subfamily 5 group A member 2 (Homo sapiens)	active
CCCCCCCCCC[n+]1cccc2c3ccccc3ccc21	Nuclear receptor subfamily 5 group A member 2 (Homo sapiens)	active
COc1cc(N(C)C)ccc1C=c1c2ccccc2n2c1cc(-c1ccccc1)[n+]2C	Nuclear receptor subfamily 5 group A member 2 (Homo sapiens)	active
O=C(CSc1ccccn1)Nc1nonc1[N+](=O)[O-]	Nuclear receptor subfamily 5 group A member 2 (Homo sapiens)	inactive
COc1ccc(NC(=O)CSc2nc(O)cc(=O)n2-c2ccccc2OC)cc1	Nuclear receptor subfamily 5 group A member 2 (Homo sapiens)	active
O=C(CCl)N(c1ccccc1)c1c[nH]c2ccccc12	Nuclear receptor subfamily 5 group A member 2 (Homo sapiens)	active
O=[N+]([O-])c1cnccc1Nc1ccccc1	Nuclear receptor subfamily 5 group A member 2 (Homo sapiens)	active
CCOc1ccc(CCNC(=O)COC(=O)c2ccc(F)c(S(=O)(=O)N3CCOCC3)c2)cc1OCC	Nuclear receptor subfamily 5 group A member 2 (Homo sapiens)	active
Cc1ccc(NC(=O)CSc2nc3[nH]c(=O)cc(O)c3s2)c(Br)c1	Nuclear receptor subfamily 5 group A member 2 (Homo sapiens)	active
O=C(Nc1ccc(F)cc1)c1oc2ccccc2c1NC(=O)C1CC1	Nuclear receptor subfamily 5 group A member 2 (Homo sapiens)	active
C=C1C(=O)OC2CC1C(OC(C)=O)CC(C)=CCCC(C)=CCCC2(C)O (centres undefined)	Nuclear receptor subfamily 5 group A member 2 (Homo sapiens)	inactive
O=[N+]([O-])c1ccc(N2CCCC2)cc1N1CCCC1	Nuclear receptor subfamily 5 group A member 2 (Homo sapiens)	active
Cc1cc(-c2nnc(SCC(=O)Nc3ccccc3C(F)(F)F)o2)c(C)n1-c1ccccc1	Nuclear receptor subfamily 5 group A member 2 (Homo sapiens)	inactive
